B1: Pre-mRNA-processing factor 40 homolog B, residues 274 to 332; numbered along this chain, Q6NWY9 (parent)
chain: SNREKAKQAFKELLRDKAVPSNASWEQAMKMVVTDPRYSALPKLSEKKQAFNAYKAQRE

Variants of: B1
Assay: abundance fitness (aPCA) (normalised: wild type 0, dead -1); higher = more abundant; growth selection in yeast, the domain comes from the species named
Settings: Homo sapiens
Property measured: abundance fitness
Form field (numeric): enter value without unit.

Incoming: Report abundance fitness for T34Q please.
Outgoing: -0.015

Incoming: Report abundance fitness for P20M please.
Outgoing: -0.549

Incoming: Report abundance fitness for K17A please.
Outgoing: -0.106

Incoming: Report abundance fitness for P36H please.
Outgoing: -0.445

Incoming: Report abundance fitness for V32K please.
Outgoing: -0.171

Incoming: Report abundance fitness for K11G please.
Outgoing: -0.16
